- System: EKVX NSCLC
- method description: NCI tumour cell line growth inhibition, 48 h
observed property: GI50

Past entries and their recorded results:
molecule=O=C(Nc1sc2c(c1C(=O)O)CCCC2)c1ccco1 study_system="EKVX NSCLC" observed_property=GI50 recorded_result="36.3 µM"
molecule=O=C(Nc1n[nH]c2cc(-c3cc(F)ccc3F)ccc12)C1CC1 study_system="EKVX NSCLC" observed_property=GI50 recorded_result="> 22.3 µM"
molecule=O=C1c2cc3c(cc2-c2c1c1cc(F)c(F)cc1c(=O)n2CCCn1ccnc1)OCO3 study_system="EKVX NSCLC" observed_property=GI50 recorded_result="0.687 µM"
molecule="COc1cc(/C=N/NC(=O)c2cnn3c2NC(c2ccccc2)C3)ccc1OC1CCCC1 (centres undefined)" study_system="EKVX NSCLC" observed_property=GI50 recorded_result="1.51 µM"
molecule=CC(=O)[CH-]C(C)=O.CC(=O)[CH-]C(C)=O.[O-]c1ccccc1.[O-]c1ccccc1.[Ti+4] study_system="EKVX NSCLC" observed_property=GI50 recorded_result="> 100 µM"
molecule="CCCCCCCC(=O)OCC/C=C/C1OC1C1OC(=O)/C=C\\C=C\\C(=O)N(C(C)=O)C(=O)/C=C(/C)CCC2OC2C1OC(=O)NC(C)=O (centres undefined)" study_system="EKVX NSCLC" observed_property=GI50 recorded_result="> 25 µM"
molecule=Cc1cccc(N2C(=O)/C(=C/C(Cl)=C/c3ccc([N+](=O)[O-])cc3)SC2=S)c1C study_system="EKVX NSCLC" observed_property=GI50 recorded_result="2.73 µM"
molecule=CN1CCN(C2=NC(=O)/C(=C\c3ccc(N(C)C)cc3)S2)CC1 study_system="EKVX NSCLC" observed_property=GI50 recorded_result="> 100 µM"

Moving on to the next molecule.
Task item: Need GI50 of COc1ccc(-n2cc(-c3ccc(OC)c(OC)c3)[nH]c2=O)cc1 , thanks.
Reply: > 100 µM

Origin of the recorded values: PubChem BioAssay (NCI)
